Entry source: ChEMBL document CHEMBL5576115

# target: UniProt Q16790
# assay: biochemical
# Description: Inhibition of human C-terminal His-tagged CA-9 (59 to 414 residues) expressed in baculovirus infected Sf9 insect cells
pIC50: −log10 of the molar value.
measurement label: pIC50

Cc1cc(C)nc(NS(=O)(=O)c2ccc(-n3cc(COc4cc(OCc5cn(-c6ccc(S(=O)(=O)Nc7nc(C)cc(C)n7)cc6)nn5)c5c(-c6ccccc6)cc(=O)oc5c4)nn3)cc2)n1    6.87

[1] O=C(Cn1cc(COc2cc(OCc3cn(CC(=O)Nc4ccc(S(=O)(=O)Nc5ccccn5)cc4)nn3)c3c(-c4ccccc4)cc(=O)oc3c2)nn1)Nc1ccc(S(=O)(=O)Nc2ccccn2)cc1
[2] O=c1cc(-c2ccccc2)c2c(OCc3cn(-c4ccc(S(=O)(=O)Nc5ccccn5)cc4)nn3)cc(OCc3cn(-c4ccc(S(=O)(=O)Nc5ccccn5)cc4)nn3)cc2o1
# query: argmin of pIC50 over 1 and 2 # answer = label of selected item
1
(1: 6.67, 2: 6.95)
